- Tested on: Klebsiella pneumoniae
- assay_text: In-vitro minimum inhibitory concentration against the growth of Klebsiella pneumoniae
- Assay type: functional
quantity_kind: MIC

Recall the recorded MIC for C=CCNC(=O)c1[nH]nc2c1C(=O)c1ccccc1C2=O with Klebsiella pneumoniae and state it.
12.5 µg/mL

Please tell me: MIC of NNC(=O)c1[nH]nc2c(O)c3ccccc3c(O)c12 , system Klebsiella pneumoniae?
> 50 µg/mL

I'm curious: which MIC was measured for CCOC(=O)c1[nH]nc2c(O)c3ccccc3c(O)c12 tested on Klebsiella pneumoniae?
6.25 µg/mL

Reported MIC for Klebsiella pneumoniae, given NC[C@H]1O[C@H](O[C@H]2[C@H](O)[C@@H](O[C@H]3O[C@H](CO)[C@@H](O)[C@H](N)[C@H]3O)[C@H](N)C[C@@H]2N)[C@H](O)[C@@H](O)[C@@H]1O ?
32 µg/mL

Notebook entry, Klebsiella pneumoniae assay: MIC of CCOC(=O)c1[nH]nc2c1C(=O)c1ccccc1C2=O = ?
12.5 µg/mL
